Molecular target: Grb2 SH2 (UniProt P62993)
Sequence (P62993 whole entry, looked up, the tested form may be a part): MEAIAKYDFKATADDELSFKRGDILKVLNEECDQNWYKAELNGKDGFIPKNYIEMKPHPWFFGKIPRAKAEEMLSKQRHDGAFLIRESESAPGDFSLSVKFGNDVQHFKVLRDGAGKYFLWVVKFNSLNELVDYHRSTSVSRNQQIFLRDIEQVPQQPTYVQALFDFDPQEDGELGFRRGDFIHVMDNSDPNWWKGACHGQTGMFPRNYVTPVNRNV
Assay: SH2 binding enrichment of the phosphorylated peptide, bacterial display (enrichment ratio); higher = better substrate or ligand; peptides without Tyr show the background;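 note: peptide library displayed on the E. coli surface as eCPX fusions, selected cells deep-sequenced, score is each peptide's frequency after selection divided by its frequency in the input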
Experimental Endpoint: SH2 binding enrichment

{"Primary Sequence": "GQDLFYEDEDL [PACS1_Y303]", "Experimental Endpoint": "SH2 binding enrichment", "Result": 0.711}
{"Primary Sequence": "LVRPPYSFSAL [FOXI1_Y126_YF]", "Experimental Endpoint": "SH2 binding enrichment", "Result": 0.809}
{"Primary Sequence": "SETDDYAEIID [PTK2_Y397]", "Experimental Endpoint": "SH2 binding enrichment", "Result": 1.04}
{"Primary Sequence": "VREIRCQGGNR [VWF_Y1570_Y1570C]", "Experimental Endpoint": "SH2 binding enrichment", "Result": 0.963}
{"Primary Sequence": "DKANRYFSPNV [PTEN_Y336_F341V]", "Experimental Endpoint": "SH2 binding enrichment", "Result": 0.808}
{"Primary Sequence": "IDPYIYTPFGS [CYP3A4_Y432]", "Experimental Endpoint": "SH2 binding enrichment", "Result": 0.775}
{"Primary Sequence": "TKQLTYEEQFL [PIK3C3_Y310_D314Y_YF]", "Experimental Endpoint": "SH2 binding enrichment", "Result": 0.98}
{"Primary Sequence": "QISRDYGVLLE [PRDX3_Y172]", "Experimental Endpoint": "SH2 binding enrichment", "Result": 0.845}
{"Primary Sequence": "LDVGEYCVPRG [BEX1_Y43_A40V]", "Experimental Endpoint": "SH2 binding enrichment", "Result": 0.755}
{"Primary Sequence": "NREGVYTVFAP [TGFBI_Y537]", "Experimental Endpoint": "SH2 binding enrichment", "Result": 0.688}
{"Primary Sequence": "YQKDVYDIPPS [NEDD9_Y177]", "Experimental Endpoint": "SH2 binding enrichment", "Result": 0.852}
{"Primary Sequence": "RRNSPYSQTMK [TET2_Y819]", "Experimental Endpoint": "SH2 binding enrichment", "Result": 0.76}
{"Primary Sequence": "REHTVYGEPRK [MAGEA4_Y240]", "Experimental Endpoint": "SH2 binding enrichment", "Result": 0.765}
{"Primary Sequence": "VRLTEYPCAGL", "Experimental Endpoint": "SH2 binding enrichment", "Result": 0.932}
{"Primary Sequence": "RESYKYLPSSL [CXXC1_Y218_F219L]", "Experimental Endpoint": "SH2 binding enrichment", "Result": 1.1}
{"Primary Sequence": "HLVLNYGVCFC [JAK2_Y613_V617F]", "Experimental Endpoint": "SH2 binding enrichment", "Result": 0.884}
{"Primary Sequence": "VATRWYRSLEL [CDKL5_Y177_P180L]", "Experimental Endpoint": "SH2 binding enrichment", "Result": 0.717}
{"Primary Sequence": "QMVGMYAFSFM [AVPR2_Y124_S126F_YF]", "Experimental Endpoint": "SH2 binding enrichment", "Result": 0.654}
{"Primary Sequence": "TDISLYPSGGT [TENM4_Y399_V396I]", "Experimental Endpoint": "SH2 binding enrichment", "Result": 0.661}
{"Primary Sequence": "ENELTYYCCKK [CD59_Y86]", "Experimental Endpoint": "SH2 binding enrichment", "Result": 0.953}
{"Primary Sequence": "KAIMTYVPSFY [ACTN4_Y260_S262P]", "Experimental Endpoint": "SH2 binding enrichment", "Result": 0.818}
{"Primary Sequence": "GLCSYYETSKM [MAGED2_Y449_R446C]", "Experimental Endpoint": "SH2 binding enrichment", "Result": 0.818}
{"Primary Sequence": "VDHFGYNKDDK [APOB_Y740_T741N]", "Experimental Endpoint": "SH2 binding enrichment", "Result": 0.665}
{"Primary Sequence": "QEMMEYRRQIQ [DES_Y324_H326R]", "Experimental Endpoint": "SH2 binding enrichment", "Result": 0.737}
{"Primary Sequence": "WISNRYLDFSS [PRPH2_Y184]", "Experimental Endpoint": "SH2 binding enrichment", "Result": 0.871}
